Value source: ChEMBL document CHEMBL4052675

The following compounds are listed with their measured IC50 values.
tested on: A549; assay: Cytotoxicity against human A549 cells after 72 hrs by MTT assay; type: functional, cell-based; settings: A549, 72 h
Please reply with the bare figure in nM and do not write the unit itself.

Returns the measured IC50 for the input compound. Input: `CCNCc1cn2c(-c3c[nH]c4ccccc34)cc(-c3ccc(F)cc3F)c(C#N)c2n1`
920

Record request: IC50 value, item `COc1cc(-c2cc(-c3ccc(F)cc3F)n3c(CN4CCCC4)cnc3c2C#N)cc(OC)c1OC`
1200

State the recorded IC50 for this entry: `CCN(CC)Cc1cnc2c(C#N)c(-c3ccc(OC)c(OC)c3OC)cc(-c3ccc(F)cc3)n12`
1970

New cases:
I would be grateful if you could share the reported IC50 for `CN(C)Cc1cn2c(-c3c[nH]c4ccccc34)cc(-c3ccc(F)cc3F)c(C#N)c2n1` .
1120

Can you look up the measured IC50 of `COc1ccc(-c2cc(-c3ccc(F)cc3)n3c(CN4CCOCC4)cnc3c2C#N)c(OC)c1OC` for me?
3560

Which IC50 is listed for `CNCc1cn2c(-c3c[nH]c4ccccc34)cc(-c3ccc(F)cc3F)c(C#N)c2n1` ?
8900

Consider the compound shown here: `N#Cc1c(-c2ccc(F)cc2F)cc(-c2c[nH]c3ccccc23)n2cc(CNC3CC3)nc12` What is its recorded IC50?
9660

Name the recorded IC50 for COc1ccc(/C=C\c2cc(OC)c(OC)c(OC)c2)cc1O [COMBRETASTATIN A4] .
430

Bench note: what IC50 did `CNCc1cn2c(-c3c[nH]c4ccccc34)cc(-c3ccc(F)cc3Cl)c(C#N)c2n1` show?
1040

What measured IC50 goes with `CCN(CC)Cc1cn2c(-c3c[nH]c4ccccc34)cc(-c3ccc(F)cc3F)c(C#N)c2n1` ?
80

Give its IC50 value. Item: `CNCc1cnc2c(C#N)c(-c3ccc(OC)c(OC)c3OC)cc(-c3ccc(F)cc3F)n12`
130

Would you kindly share the measured IC50 for `COc1ccc(-c2cc(-c3ccc(F)cc3F)n3c(CN4CCC(C)CC4)cnc3c2C#N)c(OC)c1OC` ?
1460

IC50 for `CNCc1cnc2c(C#N)c(-c3ccc(OC)c(OC)c3OC)cc(-c3ccc(F)cc3)n12` ?
710

State the recorded IC50 for this entry: `COc1ccc(-c2cc(-c3ccc(F)cc3)n3c(CN4CCCC4)cnc3c2C#N)c(OC)c1OC`
1330

* * *

tested on: HT-29; assay: Cytotoxicity against human HT-29 cells after 72 hrs by MTT assay; format: functional, cell-based; conditions: HT-29, 72 h
# note: exactly 200 nM is not below, so it is Not satisfied; use Satisfied for IC50 strictly under it

Answered cases to consult:
Please check: IC50 for `CNCc1cn2c(-c3c[nH]c4ccccc34)cc(-c3ccc(F)cc3F)c(C#N)c2n1` , strictly under 200 nM or not?
Satisfied

For this molecule, is IC50 lower than 200 nM? `CCN(CC)Cc1cnc2c(C#N)c(-c3ccc(OC)c(OC)c3OC)cc(-c3ccc(F)cc3F)n12`
Not satisfied

For this molecule, is IC50 lower than 200 nM? `COc1ccc(-c2cc(-c3ccc(F)cc3)n3c(CN4CCN(C)CC4)cnc3c2C#N)c(OC)c1OC`
Not satisfied

Others:
Please indicate whether the reported IC50 of `COc1cc(-c2cc(-c3ccc(F)cc3F)n3c(CN(C)C)cnc3c2C#N)cc(OC)c1OC` is strictly below 200 nM.
Not satisfied

Is IC50 of `CC1CCN(Cc2cn3c(-c4c[nH]c5ccccc45)cc(-c4ccc(F)cc4F)c(C#N)c3n2)CC1` strictly below 200 nM?
Satisfied
